The reported numbers originate from PubChem BioAssay AID248.

Test system: L1210 leukemia ip in BDF1 mice, survival T/C
Test: NCI In Vivo Anticancer Drug Screen. Data for tumor model L1210 Leukemia (intraperitoneal) in B6D2F1 (BDF1) mice
Settings: endpoint: mean survival time; dose: 40.0 mg/kg/injection; schedule: Q01DX001 (ip); vehicle: saline; higher = longer survival
Inconclusive results and toxic doses are left out.
assay.endpoint: T/C

>>> measured_result("COc1cccc2c1C(=O)c1c(O)c3c(c(O)c1C2=O)C[C@@](O)(C(C)=O)C[C@@H]3OC1CC(NC(C)=O)C(O)C(C)O1 (stereo not given in full)")
"124 % of control"
>>> measured_result("CCN(CC)CCCNc1c2ccccc2nc2ccccc12")
"87 % of control"
>>> measured_result("C=CCN(CC=C)C(=O)CCN1CC1")
"115 % of control"
>>> measured_result("CC(C)N=C(NC(C)C)N1CC1")
"104 % of control"
>>> measured_result("On1ccc(N2CCOCC2)cc1=NC1CCCCC1")
"98 % of control"

====

Test system: L1210 leukemia ip in BDF1 mice, survival T/C
Test: NCI In Vivo Anticancer Drug Screen. Data for tumor model L1210 Leukemia (intraperitoneal) in B6D2F1 (BDF1) mice
Conditions: endpoint: mean survival time; dose: 12.5 mg/kg/injection; schedule: Q04DX003 (ip); vehicle: saline with Tween-80; higher = longer survival
Protocol: The antitumor activity of compounds was measured in mice bearing transplantable tumors. Survival or tumor size were measured and the results are expressed as the measurement made in the treated group (T) divided by the measurement made in the vehicle treated control group (C). The tumor model used in this assay is L1210 Leukemia (intraperitoneal) in B6D2F1 (BDF1) mice
Toxic doses and inconclusive results are not listed.
Recorded T/C by entry
assay.endpoint: T/C

>>> measured_result("COC(=O)C1C2CC(O)C(C2)C1C(=O)OC (stereo not drawn)")
"95 % of control"
>>> measured_result("CCCCCCCCCCCc1cc(=O)n(-c2ccccc2)n1C")
"92 % of control"
>>> measured_result("c1ccc2c(c1)OCC(CNC1CCCCC1)O2 (stereo not drawn)")
"100 % of control"
>>> measured_result("CCCCCCCCCCCC(=O)[O][Sn]([CH2]CCC)([CH2]CCC)[O]C(=O)CCCCCCCCCCC")
"108 % of control"
>>> measured_result("O=C(O)c1cc(CBr)ccc1CBr")
"94 % of control"
>>> measured_result("O=c1ccs[nH]1")
"106 % of control"
>>> measured_result("CC1(C)N=C(N)N=C(N)N1c1ccc(CCc2ccccc2)cc1")
"101 % of control"
>>> measured_result("ClCC1=Nc2c(Cl)ncnc2NN1")
"96 % of control"

====

Recorded T/C by entry
System: L1210 leukemia ip in BDF1 mice, survival T/C
Assay: NCI In Vivo Anticancer Drug Screen. Data for tumor model L1210 Leukemia (intraperitoneal) in B6D2F1 (BDF1) mice
Settings: endpoint: mean survival time; dose: 400.0 mg/kg/injection; schedule: Q04DX003 (ip); vehicle: Klucel (hydroxypropylcellulose) (HPC); higher = longer survival
Toxic doses and inconclusive results are not listed.
assay.endpoint: T/C

>>> measured_result("CCOC(=O)/C=C(/C)OC(C)=O")
"95 % of control"
>>> measured_result("C=CCc1cnc(SC)[nH]c1=O")
"93 % of control"
>>> measured_result("N#CC(C#N)=Cc1cccc([N+](=O)[O-])c1")
"106 % of control"
>>> measured_result("CC(=O)C(C)C(O)c1ccc([N+](=O)[O-])cc1 (configuration not stated)")
"98 % of control"
>>> measured_result("CC(=O)NC1CC2c3ccccc3C1([N+](=O)[O-])c1ccccc12 (configuration not stated)")
"97 % of control"
>>> measured_result("CCOC(=O)/C(C)=N\\Nc1ccc(Cl)cc1")
"99 % of control"
>>> measured_result("COC(=O)CC(=O)c1ccc(C)cc1")
"95 % of control"

====

Tested on: L1210 leukemia ip in BDF1 mice, survival T/C
Experiment: NCI In Vivo Anticancer Drug Screen. Data for tumor model L1210 Leukemia (intraperitoneal) in B6D2F1 (BDF1) mice
Conditions: endpoint: mean survival time; dose: 100.0 mg/kg/injection; schedule: Q04DX003 (ip); vehicle: Klucel (hydroxypropylcellulose) (HPC); higher = longer survival
Inconclusive results and toxic doses are left out.
assay.endpoint: T/C

>>> measured_result("COC(=O)C1(C(=O)OC)C2CCCCC21C (configuration not stated)")
"106 % of control"
>>> measured_result("O=C(CCCCl)NCc1ccccc1[N+](=O)[O-]")
"101 % of control"
>>> measured_result("N#Cc1ccccc1.N#Cc1ccccc1.[Cl][Pd][Cl]")
"94 % of control"
>>> measured_result("CC(=O)N(C(C)=O)C1=C(c2ccccc2)C(=O)c2ccccc21")
"96 % of control"
>>> measured_result("O=Cc1[nH]c(=S)[nH]c(=O)c1Cc1ccccc1Cl")
"101 % of control"
>>> measured_result("CCCCCN(C)N=Nc1ccccc1C(N)=O")
"109 % of control"
>>> measured_result("CCN(C(=O)COc1ccc(Cl)cc1)c1ccccc1C")
"101 % of control"

====

Test system: L1210 leukemia ip in BDF1 mice, survival T/C
Experiment: NCI In Vivo Anticancer Drug Screen. Data for tumor model L1210 Leukemia (intraperitoneal) in B6D2F1 (BDF1) mice
Conditions: endpoint: mean survival time; dose: 200.0 mg/kg/injection; schedule: Q01DX009 (ip); vehicle: other; higher = longer survival
Procedure: The antitumor activity of compounds was measured in mice bearing transplantable tumors. Survival or tumor size were measured and the results are expressed as the measurement made in the treated group (T) divided by the measurement made in the vehicle treated control group (C). The tumor model used in this assay is L1210 Leukemia (intraperitoneal) in B6D2F1 (BDF1) mice
Toxic doses and inconclusive results are not listed.
assay.endpoint: T/C

>>> measured_result("CCCCCCCCCC(=O)CCCCC")
"98 % of control"
>>> measured_result("CC(Cc1ccc2c(c1)OCO2)C(C)Cc1ccc2c(c1)OCO2 (stereo unspecified)")
"109 % of control"
>>> measured_result("Cc1ccc(CNC(=O)Nc2ccccc2)c(C)c1")
"91 % of control"
>>> measured_result("CC(CN(CCNc1ccccc1)c1ccccc1)c1ccccc1 (stereo unspecified)")
"104 % of control"
>>> measured_result("CCOc1cc(OCC)c(C=O)c(OCC)c1")
"94 % of control"
>>> measured_result("COc1cc2c(cc1OC(C)=O)C=CCCC2=O")
"90 % of control"

====

Recorded T/C by entry
Test system: L1210 leukemia ip in BDF1 mice, survival T/C
Experiment: NCI In Vivo Anticancer Drug Screen. Data for tumor model L1210 Leukemia (intraperitoneal) in B6D2F1 (BDF1) mice
Settings: endpoint: mean survival time; dose: 400.0 mg/kg/injection; schedule: Q01DX001 (ip); vehicle: other; higher = longer survival
Protocol: The antitumor activity of compounds was measured in mice bearing transplantable tumors. Survival or tumor size were measured and the results are expressed as the measurement made in the treated group (T) divided by the measurement made in the vehicle treated control group (C). The tumor model used in this assay is L1210 Leukemia (intraperitoneal) in B6D2F1 (BDF1) mice
Inconclusive results and toxic doses are left out.
assay.endpoint: T/C

>>> measured_result("S=c1nc[nH]c2c1ncn2/N=C/c1ccccc1")
"96 % of control"
>>> measured_result("CC(C)C(NC(=O)OCc1ccccc1)C(=O)OCc1ccc([N+](=O)[O-])cc1 (configuration not stated)")
"90 % of control"
>>> measured_result("Cc1ccccc1C(=O)c1ccccc1C")
"107 % of control"
>>> measured_result("C=CCN(CC=C)C(=S)Nc1cccc(Cl)c1")
"100 % of control"
>>> measured_result("COCCCNP(=S)(OC)OC")
"94 % of control"
>>> measured_result("COc1ccc(CC2=[N+](C)CCc3cc(OC)c(OC)cc32)cc1OC")
"106 % of control"
>>> measured_result("C=C(COc1ccc(Cl)cc1)COc1ccc(Cl)cc1")
"91 % of control"

====

Recorded T/C by entry
Tested on: L1210 leukemia ip in BDF1 mice, survival T/C
Assay: NCI In Vivo Anticancer Drug Screen. Data for tumor model L1210 Leukemia (intraperitoneal) in B6D2F1 (BDF1) mice
Conditions: endpoint: mean survival time; dose: 400.0 mg/kg/injection; schedule: Q01DX001 (ip); vehicle: carboxymethylcellulose (CMC); higher = longer survival
Inconclusive results and toxic doses are left out.
assay.endpoint: T/C

>>> measured_result("C/C(=C\\C(=O)O)C(=O)O (tested in a mixture with another compound)")
"112 % of control"
>>> measured_result("O/N=C1\\c2ccccc2-c2cc(Cl)ccc21")
"103 % of control"
>>> measured_result("O=C(OCCBr)Oc1cccc2ccccc12")
"95 % of control"
>>> measured_result("CC(=O)NCCCCCC(=O)Nc1ccc(Cl)c(Cl)c1")
"92 % of control"
>>> measured_result("NC(=O)/C=C/NC(=O)/C=N\\O")
"91 % of control"
>>> measured_result("CC(CO)(CO)N=Cc1cc(Br)ccc1O")
"86 % of control"
>>> measured_result("O=C(NO)c1ccc(F)cc1")
"92 % of control"
>>> measured_result("O=C1C(Cl)=C(Nc2ccc(Br)cc2)C(=O)C(Cl)=C1Nc1ccc(Br)cc1")
"90 % of control"
>>> measured_result("Nc1nnc(Sc2n[nH]c(=O)[nH]c2=O)s1")
"105 % of control"
>>> measured_result("COC(=O)c1[nH]ncc1N=NN(C)C")
"113 % of control"
>>> measured_result("O=C(Nc1ccc(F)cc1)Nc1ccc(Nc2ccccc2)cc1")
"91 % of control"
>>> measured_result("Nc1cc2c(cc1Br)-c1ccc([N+](=O)[O-])cc1/C2=N\\O")
"97 % of control"
